# tested_target: UniProt O70536
# Sequence (whole entry): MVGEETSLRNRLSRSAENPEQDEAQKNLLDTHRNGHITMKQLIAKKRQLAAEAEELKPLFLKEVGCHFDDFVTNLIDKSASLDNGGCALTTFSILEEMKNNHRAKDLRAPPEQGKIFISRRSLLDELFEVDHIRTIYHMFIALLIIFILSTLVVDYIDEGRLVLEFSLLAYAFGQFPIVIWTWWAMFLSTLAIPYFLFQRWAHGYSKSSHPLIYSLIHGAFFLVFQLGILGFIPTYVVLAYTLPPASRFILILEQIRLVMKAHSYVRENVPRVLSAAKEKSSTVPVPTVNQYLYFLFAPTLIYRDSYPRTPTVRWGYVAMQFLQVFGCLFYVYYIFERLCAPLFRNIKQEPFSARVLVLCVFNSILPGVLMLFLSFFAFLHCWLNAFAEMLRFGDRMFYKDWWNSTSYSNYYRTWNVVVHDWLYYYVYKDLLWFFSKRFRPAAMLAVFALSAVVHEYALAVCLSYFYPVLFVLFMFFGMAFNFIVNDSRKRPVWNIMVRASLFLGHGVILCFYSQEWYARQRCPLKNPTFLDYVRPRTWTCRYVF
# procedure_details: In vitro percentage inhibition against Acyl coenzyme A:cholesterol acyltransferase derived from rat adrenals
# Parameters: concentration or dose not given beside the values
# stated_conditions: concentration not given here
assay_endpoint: inhibition (%)
Give bare numbers, in %.

Recorded inhibition, per entry:
{"columns": ["molecule", "result_number"],
 "data": [
  ["CCCCN(CC(c1ccc(Cl)cc1)c1ccc(Cl)cc1)C(=O)Nc1ccc(C)cc1C", 81],
  ["CCCCN(CCCC)C(=O)Nc1cccc(Cl)c1Cl", 85],
  ["CCCCN(CCCC)C(=O)Nc1ccc(I)cc1", 83]
]}

List the reported inhibition of each molecule below.
1. CCCCN(Cc1ccccc1)C(=O)Nc1ccccc1[N+](=O)[O-]
2. CCC(C)N(C(=O)Nc1ccc(C)cc1C)C(C)CC (centres undefined)
3. O=C(Nc1ccccc1C(F)(F)F)N(Cc1ccccc1)Cc1ccccc1
4. O=C(Nc1cccc(Cl)c1Cl)N(Cc1ccccc1)Cc1ccccc1
5. CCCCN(CCC(c1ccccc1)c1ccccc1)C(=O)Nc1ccc(C)cc1C
6. Cc1cccc(Cl)c1NC(=O)N(Cc1ccccc1)Cc1ccccc1
7. O=C(NCc1ccccc1)Nc1ccccc1Cl

Result ::
1. 37
2. 78
3. 68
4. 80
5. 53
6. 84
7. 50

Value sought for every listed molecule: inhibition.
1. Cc1cc(C)c(NC(=O)N(Cc2ccccc2)Cc2ccccc2)cc1C
2. Cc1c(Cl)cccc1NC(=O)N(Cc1ccccc1)Cc1ccccc1
3. CCCCN(CCCC)C(=O)Nc1ccc(C(C)=O)cc1
4. O=C(Nc1cccc(C(F)(F)F)c1)N(Cc1ccccc1)Cc1ccccc1
5. CCCCCCCCCCCN(CCCCCCCCCCC)C(=O)Nc1ccc(C)cc1C
6. Cc1ccc(Cl)cc1NC(=O)N(Cc1ccccc1)Cc1ccccc1
7. Cc1ccc(NC(=O)NCc2ccccc2)c(C)c1

Result ::
[69, 84, 55, 94, 49, 71, 35]

Below are some molecules; for each one, tell me its inhibition.
1. Cc1ccc(Cl)cc1NC(=O)NCc1ccccc1
2. O=C(Nc1ccc(Cl)cc1C(F)(F)F)N(Cc1ccccc1)Cc1ccccc1
3. O=C(Nc1ccc(Cl)c(Cl)c1)N(Cc1ccccc1)Cc1ccccc1
4. CCCCN(CC(C)(c1ccccc1)c1ccccc1)C(=O)Nc1ccc(C)cc1C
5. O=C(Nc1cc(Cl)ccc1Cl)N(Cc1ccccc1)Cc1ccccc1

Result ::
[33, 82, 95, 97, 82]

Please supply inhibition for each of the following items, keeping them in order.
1. CCCCCCN(CCCCCC)C(=O)Nc1ccc(C)cc1C
2. CCCCCCCC/C=C/CCCCCCCCN(Cc1ccc(CCCC)cc1)C(=O)Nc1ccc(C)cc1C (stereo in doubt; 161)

Result ::
1. 95
2. 9
